Assay: Evaluation of solubilities of photoinitiators in cationic active diluents
Format: physicochemical
Conditions: diluent DVE-3: triethyleneglycol divinyl ether
measured.metric: Solubility in DVE-3

{"columns": ["molecule", "Solubility in DVE-3"],
 "data": [
  ["CCOC(=O)C(=O)c1ccc(Oc2ccc([S+](c3ccccc3)c3ccccc3)cc2)cc1", ">10%"]
]}

Record [F][Sb-]([F])([F])([F])([F])[F].[F][Sb-]([F])([F])([F])([F])[F].c1ccc([S+](c2ccccc2)c2ccc(Sc3ccc([S+](c4ccccc4)c4ccccc4)cc3)cc2)cc1 [UVI6976, reference compound] . Reported Solubility in DVE-3: <2%

Record CCOC(=O)C(=O)c1ccc(Oc2ccc([S+](c3ccc(C)cc3)c3ccc(C)cc3)cc2)cc1 . Reported Solubility in DVE-3: >10%

Record COC(=O)C(=O)c1ccc(Sc2ccc([S+](c3ccc(Sc4ccc(C(=O)C(=O)OC)cc4)cc3)c3ccc(Sc4ccc(C(=O)C(=O)OC)cc4)cc3)cc2)cc1 . Reported Solubility in DVE-3: >10%

* * *

Assay: Evaluation of solubilities of photoinitiators in cationic active diluents
Assay type: physicochemical
Conditions: diluent DOX: 3,3′-[oxybismethylene]bis[3-ethyl] oxetane
measured.metric: Solubility in DOX

Observe how each entry below is paired with its result.
{"columns": ["compound", "Solubility in DOX"],
 "data": [
  ["COC(=O)C(=O)c1ccc(Sc2ccc([S+](c3ccc(Sc4ccc(C(=O)C(=O)OC)cc4)cc3)c3ccc(Sc4ccc(C(=O)C(=O)OC)cc4)cc3)cc2)cc1", ">10%"],
  ["CCOC(=O)C(=O)c1ccc(Oc2ccc([S+](c3ccc(C)cc3)c3ccc(C)cc3)cc2)cc1", ">10%"],
  ["CCOC(=O)C(=O)c1ccc(Oc2ccc([S+](c3ccccc3)c3ccccc3)cc2)cc1", ">10%"]
]}

Lab note: next compound to report on.
Record [F][Sb-]([F])([F])([F])([F])[F].[F][Sb-]([F])([F])([F])([F])[F].c1ccc([S+](c2ccccc2)c2ccc(Sc3ccc([S+](c4ccccc4)c4ccccc4)cc3)cc2)cc1 [UVI6976, reference compound] . Reported Solubility in DOX: <2%
